Test: Jejunal absorption of drug solutions from ligated sections of the jejunum of anesthetized rats (bile collection)
Type: in vivo
Conditions: rat, pH 7.4, solution 2 mg/ml drug, palmitoyl carnitine chloride 5 mg/kg, β-cyclodextrin 7.5 mg/kg, read-out: % of Dose Absorbed Relative to IV (+/- s.d.)
Readout name: Fa at 3.5 h (%)

[[record]]
smiles_data = "C[C@@H](O)CNC(C)(C)CC(=O)N[C@@H]1CCc2ccccc2N(Cc2ccc(-c3ccccc3-c3nnn[nH]3)cc2)C1=O"
readout_name = "Fa at 3.5 h"
reading_unit = "%"
result_number = 14


====

Assay: Absorption of solid formulations (powders, tablets, beads) from unligated sections of the jejunum of anesthetized rats (bile collection)
Type: in vivo
Details: rat, 2 mg/kg, powder, 2 mg/kg drug, palmitoyl carnitine chloride 10 mg/kg, β-cyclodextrin 0 mg/kg, read-out: absorption determined as in Example 1 (± standard deviation)
Readout name: Fa

[[record]]
smiles_data = "C[C@@H](O)CNC(C)(C)CC(=O)N[C@@H]1CCc2ccccc2N(Cc2ccc(-c3ccccc3-c3nnn[nH]3)cc2)C1=O"
readout_name = "Fa"
result = "3.3%"

